Record form. Attribute: IC50. Fill in for each entry.
- Protocol text: Displacement of SYBR green I from salmon testes DNA assessed as compound treated with DNA followed by SYBR green I added relative to control
- Set-up: species or system Salmonidae

Compound: C[n+]1ccn(CCCCCCCCCCCCCn2cc[n+](C)c2)c1
IC50: 0.0252 mM
//
Compound: C[n+]1ccn(CCCCn2cc[n+](C)c2)c1
IC50: > 2.5 mM
//
Compound: Ic1ccc(Cn2cc[n+](Cc3ccc(I)cc3)c2)cc1
IC50: > 2.5 mM
//
Compound: c1ccc(-c2nn(-c3ccccc3)[n+](-c3cccc4ccccc34)n2)cc1 [TETRAZOLIUM VIOLET]
IC50: > 2.5 mM

For each of the compounds below, note its IC50.
1. c1cn(-c2ccc(-n3ccnc3)cc2)cn1
2. C[n+]1ccn(CCCOc2ccc(OCCCn3cc[n+](C)c3)cc2)c1
3. C[n+]1ccn(CCCCCCCCCCCn2cc[n+](C)c2)c1
4. C[n+]1ccn(CCCCCCCCCCCCCCn2cc[n+](C)c2)c1
5. c1cn(CCCCCCCCCCCCCCCCCCn2ccnc2)cn1
6. c1ccc2cc(Cn3cc[n+](Cc4ccc5ccccc5c4)c3)ccc2c1
7. Clc1ccccc1Cn1cc[n+](Cc2ccccc2Cl)c1
8. c1cn(CCCCCCCCCCCn2ccnc2)cn1

Solution:
["> 2.5 mM", "> 2.5 mM", "> 2.5 mM", "1.21 mM", "0.058 mM", "> 2.5 mM", "> 2.5 mM", "> 2.5 mM"]

For each of the compounds below, note its IC50.
1. COc1cc(-c2ccc(-[n+]3nc(-c4ccccc4)nn3-c3ccc([N+](=O)[O-])cc3)c(OC)c2)ccc1-[n+]1nc(-c2ccccc2)nn1-c1ccc([N+](=O)[O-])cc1 [NITROBLUE TETRAZOLIUM CHLORIDE]
2. C[n+]1ccn(CCCCCCCCCCCCCCCn2cc[n+](C)c2)c1
3. C[n+]1ccn(-c2ccc(-c3ccc(-n4cc[n+](C)c4)cc3)cc2)c1
4. Brc1ccc(C[n+]2ccn(Cc3ccccc3)c2)cc1
5. c1cn(-c2ccc(-c3ccc(-n4ccnc4)cc3)cc2)cn1
6. Clc1ccc(Cn2cc[n+](Cc3ccc(Cl)cc3)c2)cc1
7. C[n+]1ccn(CCCCCCCCCCn2cc[n+](C)c2)c1

Solution:
0.36 mM
> 2.5 mM
0.423 mM
> 2.5 mM
> 2.5 mM
> 2.5 mM
> 2.5 mM

For each of the compounds below, note its IC50.
1. O=[N+]([O-])c1ccc(-n2nc(-c3ccccc3)n[n+]2-c2ccc(I)cc2)cc1 [IODONITROTETRAZOLIUM CHLORIDE]
2. C[n+]1ccn(CCCCCCCCCCCCCCCCn2cc[n+](C)c2)c1

Solution:
["> 2.5 mM", "0.03 mM"]

For each of the compounds below, note its IC50.
1. C[n+]1ccn(CCCCCCCCCCCCn2cc[n+](C)c2)c1
2. c1cn(CCCCCCCCCCCCn2ccnc2)cn1
3. C[n+]1ccn(CCCCCCCCCCCCCCCCCCCCn2cc[n+](C)c2)c1
4. C[n+]1ccn(CCCCCCCCn2cc[n+](C)c2)c1

Solution:
1. > 2.5 mM
2. > 2.5 mM
3. 0.008 mM
4. > 2.5 mM

---

- Protocol text: Displacement of SYBR green I from salmon testes DNA assessed as compound treated with DNA followed by SYBR green I added relative to control
- Design: species or system Salmonidae
Property: IC50

Examples with answers:
Molecule: Brc1ccc(Cn2cc[n+](Cc3ccc(Br)cc3)c2)cc1
IC50: > 2500 µM
//
Molecule: COc1cc(-c2ccc(-n3nc(-c4ccccc4)n[n+]3-c3ccccc3)c(OC)c2)ccc1-n1nc(-c2ccccc2)n[n+]1-c1ccccc1 [TETRAZOLIUM BLUE CHLORIDE]
IC50: > 2500 µM
//
Molecule: C[n+]1ccn(CCCCCCCCCCCCCCCCCCn2cc[n+](C)c2)c1
IC50: 7.4 µM
//
Molecule: c1cn(CCCCCCCCCCCCCCCCCCCCn2ccnc2)cn1
IC50: > 2500 µM

For each of the molecules below, note its IC50.
1. c1cn(CCCCCCCCCCCCCCn2ccnc2)cn1
2. c1cn(CCCCCCn2ccnc2)cn1
3. COc1cc(-c2ccc(-n3nc(-c4ccc([N+](=O)[O-])cc4)n[n+]3-c3ccc([N+](=O)[O-])cc3)c(OC)c2)ccc1-n1nc(-c2ccc([N+](=O)[O-])cc2)n[n+]1-c1ccc([N+](=O)[O-])cc1

Solution:
["> 2500 µM", "> 2500 µM", "34 µM"]

---

Record form. Attribute: pIC50. Fill in for each entry.
- Protocol text: Displacement of SYBR green I from salmon testes DNA assessed as compound treated with DNA followed by SYBR green I added relative to control
- Design: species or system Salmonidae
pIC50: −log10 of the molar value.

Compound: c1cn(CCCCCCCCCCCCCCCCn2ccnc2)cn1
Property: pIC50
Recorded result: 4.28
//
Compound: CC[n+]1ccn(CCCCCCCCCCCCn2cc[n+](CC)c2)c1
Property: pIC50
Recorded result: < 2.60
//
Compound: c1ccc(-c2nn(-c3ccccc3)[n+](-c3ccccc3)n2)cc1
Property: pIC50
Recorded result: < 2.60
//
Compound: c1cn(CCCCn2ccnc2)cn1
Property: pIC50
Recorded result: < 2.60
//
Compound: CCC[n+]1ccn(CCCCCCCCCCCCn2cc[n+](CCC)c2)c1
Property: pIC50
Recorded result: 3.96

For each of the compounds below, note its pIC50.
1. c1ccc(C[n+]2ccn(-c3ccc(-c4ccc(-n5cc[n+](Cc6ccccc6)c5)cc4)cc3)c2)cc1
2. C[n+]1ccn(-c2ccc(-n3cc[n+](C)c3)cc2)c1
3. c1ccc(-c2nn(-c3ccccc3)[n+](-c3ccc(-c4ccc(-[n+]5nc(-c6ccccc6)nn5-c5ccccc5)cc4)cc3)n2)cc1 [NEOTETRAZOLIUM CHLORIDE]
4. O=[N+]([O-])c1ccc(Cn2cc[n+](Cc3ccc([N+](=O)[O-])cc3)c2)cc1
5. C[n+]1ccn(CCCCCCn2cc[n+](C)c2)c1
6. c1cn(CCCCCCCCn2ccnc2)cn1

Solution:
1. 3.43
2. < 2.60
3. 4.18
4. 6.52
5. < 2.60
6. < 2.60

---

- Protocol text: Displacement of SYBR green I from salmon testes DNA assessed as compound treated with DNA followed by SYBR green I added relative to control
- Design: species or system Salmonidae
pIC50: −log10 of the molar value.
Property: pIC50

Test smiles: c1cn(CCCCCCCCCCCCCCCn2ccnc2)cn1
pIC50: < 2.60
//
Test smiles: Brc1cccc(Cn2cc[n+](Cc3cccc(Br)c3)c2)c1
pIC50: < 2.60
//
Test smiles: c1cn(Cc2ccc(-c3ccc(Cn4ccnc4)cc3)cc2)cn1
pIC50: < 2.60

For each of the molecules below, note its pIC50.
1. C[n+]1ccn(Cc2ccc(-c3ccc(Cn4cc[n+](C)c4)cc3)cc2)c1
2. c1cn(CCCCCCCCCCCCCn2ccnc2)cn1
3. c1cn(CCCCCCCCCCn2ccnc2)cn1

Solution:
1: < 2.60; 2: 3.73; 3: < 2.60

Exercise: Which pIC50 is reported for this molecule? O=[N+]([O-])c1ccc(C[n+]2ccn(-c3ccc(-c4ccc(-n5cc[n+](Cc6ccc([N+](=O)[O-])cc6)c5)cc4)cc3)c2)cc1
Solution: 6.40

src = ChEMBL document CHEMBL2331268
